species on record: Homo sapiens; test: Selectivity ratio of IC50 for full-length human PDE4D2 to IC50 for full-length human PDE4B2
MEASUREMENT_KIND: Ratio IC50

O=C(O)Cc1ccc(Nc2nc(-c3ccccc3)nc3c2S(=O)(=O)CCC3)cc1 | 3.7
COc1cccc2cc(-c3nc4c(c(Nc5ccc(CC(=O)O)cc5)n3)S(=O)(=O)CCC4)ccc12 | 9.7
COc1ccc(-c2nc3c(c(Nc4ccc(CC(=O)O)cc4)n2)S(=O)(=O)CCC3)cc1 | 34
N#Cc1ccc(-c2nc3c(c(Nc4ccc(CC(=O)O)cc4)n2)SCCC3)cc1 | 9.7
CN(C)c1ccc(-c2nc3c(c(Nc4ccc(CC(=O)O)cc4)n2)SCCC3)cc1 | 21
O=C(O)Cc1ccc(Nc2nc(-c3cc4ccccc4s3)nc3c2S(=O)(=O)CCC3)cc1 | 48
COc1ccc(-c2nc3c(c(Nc4ccc(CC(=O)O)cc4)n2)S(=O)(=O)CCC3)cc1F | 100
CN(C)c1ccc(-c2nc3c(c(Nc4ccc(CC(=O)O)cc4)n2)SCCC3)cn1 | 11
COc1ccc(-c2nc3c(c(Nc4ccc(CC(=O)O)cc4)n2)SCCC3)cc1 | 25
